B1: library; numbered along this chain (parent)
chain: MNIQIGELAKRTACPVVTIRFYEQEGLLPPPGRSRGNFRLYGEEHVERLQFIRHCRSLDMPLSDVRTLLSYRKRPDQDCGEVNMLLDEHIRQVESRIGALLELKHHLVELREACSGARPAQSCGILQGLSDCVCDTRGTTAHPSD

Variants of: B1
ASSAY SUMMARY: sfGFP reporter fluorescence (15 h) (µM FITC); higher = stronger transcriptional activation
RECORDED CONDITIONS: library round: Round 0; ligand: 30 µM Zn
sfGFP reporter fluorescence values by entry

| MUTATION | sfGFP reporter fluorescence |
| --- | --- |
| M60L D64K K104V G128I | 4.17 |
| E7Y | 0.222 |
| L68A | 0.156 |
| Y22I | 0.0564 |
| C123G | 0.0502 |
| I3D | 0.0812 |
| L68T | 0.0717 |
| M60S | 0.0592 |
| V108L | 0.616 |
| R20C | 0.0634 |
| P30S | 0.651 |
| E109I | 1.25 |
| H89C | 0.0614 |
| H89T | 0.0588 |
| E7M | 0.859 |
| C114V | 0.0519 |
| D131R | 1.65 |
| E109A | 0.883 |
| V17A | 0.622 |
| F21R | 0.0685 |
| F21I | 0.0607 |
| L107R | 0.0781 |
| M60H | 0.0638 |
| V46L | 0.811 |
| C114F | 0.053 |
| Y22H | 0.0651 |
| L58P | 0.0605 |
| R33K | 0.112 |
| R20W | 0.063 |
| E7S | 0.999 |
| Q92A | 0.421 |
| G36V | 0.322 |
| Y22T | 0.0612 |
| L27V | 0.349 |
| V82P | 0.0577 |
| F21V | 0.0669 |
| F21W | 0.945 |
| N83R | 0.0883 |
| V108M | 0.583 |
| R20P | 0.0673 |
| G36T | 0.866 |
| L62M | 0.533 |
| C134T | 1.21 |
| L107C G128M | 4.14 |
| I3W | 0.957 |
| G36P | 0.0627 |
| I125R | 0.0575 |
| L110I | 0.542 |
| L68H | 0.0795 |
| I3R | 0.376 |
| L68E | 0.0652 |
| I97F | 0.278 |
| D64L | 4.32 |
| D135S | 0.988 |
| E7I | 0.696 |
| K104V L107A | 2.18 |
| V108Q | 0.672 |
| P15R | 1.04 |
| C123E | 0.0557 |
| G36R | 0.247 |
| D131M | 1.17 |
| D64G | 1.26 |
| C114N | 0.0546 |
| V16Q | 1.43 |
| L62K | 0.0815 |
| C55A | 1.28 |
| P15Q | 0.94 |
| V46S | 0.306 |
| L85W | 0.157 |
| H105A | 0.769 |
| P30F | 0.489 |
| L110P | 0.0575 |
| K104V L107C | 2.31 |
| I97K | 0.102 |
| G6V | 0.0651 |
| F21N | 0.0627 |
| I3F | 0.587 |
| D135A | 0.335 |
| L85I | 0.619 |
| R39M | 0.0583 |
| P61N L107C G128M | 5.17 |
| L62W | 0.0665 |
| I125V | 0.183 |
| I125P | 0.0535 |
| C114Y | 0.0544 |
| E112V | 0.343 |
| C134K | 1.71 |
| L27C | 0.142 |
| H89N | 0.261 |
| C134Q | 1.33 |
| P30L | 0.901 |
